test: Half life in mouse liver microsomes; assay type: ADME, Microsome
observation.type: half-life (h)

P. Cc1cc(NS(=O)(=O)c2ccc(NC(=O)Cc3ccc(Cl)c(Cl)c3)cc2)no1
Q. O=C(Cc1ccc(Cl)c(Cl)c1)Nc1ccc(S(=O)(=O)Nc2ccon2)cc1
Higher half-life: P or Q ? Respond using the label that marks the chosen record.
P

###

molecular target: ATP-dependent 6-phosphofructokinase (Trypanosoma brucei); experiment: Inhibition of Trypanosoma brucei PFK-mediated ADP production using ATP/fructose-6-phosphate as substrate by luciferase based luminescence assay
observation.type: IC50 (µM)

In the examples that follow, each entry is paired with its recorded IC50.
Cc1cc(NS(=O)(=O)c2ccc(C(=O)NCc3ccc(Cl)c(Cl)c3)cc2)no1    5.16
Cc1cc(NS(=O)(=O)c2ccc(NC(=O)Cc3ccc(Cl)cc3Cl)cc2)no1    4.61
Cc1cc(NS(=O)(=O)c2ccc(NC(=O)Cc3ccc(F)c(Cl)c3)cc2)no1    0.73

A. O=C(Cc1ccc(Cl)c(Cl)c1)Nc1ccc(S(=O)(=O)Nc2cccc(C(=O)O)c2)cc1
B. Cc1cc(NS(=O)(=O)c2ccc(NC(=O)Cc3ccc(Cl)cc3)cc2)no1
C. O=C(Cc1ccc(F)c(Cl)c1)Nc1ccc(S(=O)(=O)Nc2nncs2)cc1
D. Cc1cc(NS(=O)(=O)c2ccc(NC(=O)Cc3ccc(Cl)c(C(F)(F)F)c3)cc2)no1
E. Cc1cc(NS(=O)(=O)CCNC(=O)Cc2ccc(Cl)c(Cl)c2)no1
Form: Sort by [IC50] Order [ ascending ] To answer, arrange all of the labels according to the requested order.
C, A, D, B, E
(C: 0.015 µM, A: 0.26 µM, D: 0.68 µM, B: 1.83 µM, E: 32.6 µM)

###

Target chain: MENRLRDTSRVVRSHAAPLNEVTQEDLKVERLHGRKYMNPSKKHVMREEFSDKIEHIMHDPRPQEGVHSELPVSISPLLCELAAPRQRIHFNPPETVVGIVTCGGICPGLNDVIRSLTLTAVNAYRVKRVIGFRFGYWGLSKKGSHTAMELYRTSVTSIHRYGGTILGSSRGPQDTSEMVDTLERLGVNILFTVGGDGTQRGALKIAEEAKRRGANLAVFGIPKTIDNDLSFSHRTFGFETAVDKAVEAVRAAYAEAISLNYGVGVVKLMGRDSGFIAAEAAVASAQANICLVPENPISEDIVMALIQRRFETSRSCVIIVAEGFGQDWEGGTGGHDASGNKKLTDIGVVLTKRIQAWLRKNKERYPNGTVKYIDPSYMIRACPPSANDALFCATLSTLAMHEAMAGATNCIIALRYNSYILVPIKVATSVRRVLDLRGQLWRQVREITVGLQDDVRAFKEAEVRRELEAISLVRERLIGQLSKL
pIC50: −log10 of the molar value.
observation.type: pIC50

Cc1cc(NS(=O)(=O)c2ccc(NC(=O)Cc3ccc(C)c(C)c3)cc2)no1    5.19

A. Cc1cc(NS(=O)(=O)CCNC(=O)Cc2ccc(Cl)c(Cl)c2)no1
B. O=C(Cc1ccc(Cl)c(Cl)c1)Nc1ccc(S(=O)(=O)Nc2cc[nH]n2)cc1
C. Cc1cc(NS(=O)(=O)c2ccc(NC(=O)CCc3ccc(Cl)c(Cl)c3)cc2)no1
D. Cc1cc(N(C)S(=O)(=O)c2ccc(NC(=O)Cc3ccc(Cl)c(Cl)c3)cc2)no1
E. O=C(Cc1ccc(Cl)c(Cl)c1)Nc1ccc(S(=O)(=O)Nc2ccon2)cc1
# rank_down: sort by pIC50, max first To answer, arrange all of the labels according to the requested order.
E, B, D, C, A

###

molecular target: ATP-dependent 6-phosphofructokinase (Trypanosoma brucei); assay: Inhibition of Trypanosoma brucei PFK-mediated ADP production using ATP/fructose-6-phosphate as substrate by luciferase based luminescence assay
observation.type: IC50 (µM)

In the examples that follow, each entry is paired with its recorded IC50.
Cc1cc(NS(=O)(=O)c2ccc(NCCc3ccc(Cl)c(Cl)c3)cc2)no1    6
O=C(Cc1ccc(Cl)c(Cl)c1)Nc1ccc(S(=O)(=O)Nc2cccc(O)c2)cc1    1.46
Cc1cc(NS(=O)(=O)c2ccc(NC(=O)Cc3ccc(Cl)c(F)c3)cc2)no1    0.7
O=C(Cc1ccc(Cl)c(Cl)c1)Nc1ccc(S(=O)(=O)O)cc1    0.65
Cc1cc(NS(=O)(=O)c2ccc(N(C)C(=O)Cc3ccc(Cl)c(Cl)c3)cc2)no1    6.51
O=C(Cc1ccc(Cl)c(Cl)c1)Nc1ccc(S(=O)(=O)Nc2ccccc2)cc1    16.3
O=C(Cc1ccc(Cl)c(Cl)c1)Nc1ccc(S(=O)(=O)Nc2ccon2)cc1    0.37
Cc1ccc(C(=O)Nc2ccc(S(=O)(=O)O)c3cc(S(=O)(=O)O)cc(S(=O)(=O)O)c23)cc1NC(=O)c1cccc(NC(=O)Nc2cccc(C(=O)Nc3cc(C(=O)Nc4ccc(S(=O)(=O)O)c5cc(S(=O)(=O)O)cc(S(=O)(=O)O)c45)ccc3C)c2)c1 [SURAMIN]    3

a. Cc1cc(NS(=O)(=O)c2ccc(NC(=O)Cc3ccc(C)c(C)c3)cc2)no1
b. Cc1cc(NS(=O)(=O)c2ccc(NS(=O)(=O)Cc3ccc(Cl)c(Cl)c3)cc2)no1
Please indicate which has the smaller reported IC50: a , or b . Respond using the label that marks the chosen record.
a
(a: 18.3 µM, b: 37 µM)

a. O=C(Cc1ccc(Cl)c(Cl)c1)Nc1ccc(S(=O)(=O)Nc2cc[nH]n2)cc1
b. O=C(Cc1ccc(Cl)c(Cl)c1)Nc1ccc(S(=O)(=O)Nc2nccs2)cc1
c. O=C(Cc1ccc(Cl)c(Cl)c1)Nc1ccc(S(=O)(=O)Nc2ccc(C(=O)O)cc2)cc1
d. Cc1cc(NS(=O)(=O)C2CCN(C(=O)Cc3ccc(Cl)c(Cl)c3)CC2)no1
e. Cc1cc(NS(=O)(=O)c2ccc(NC(=O)Cc3ccc4ccccc4c3)cc2)no1
# rank_down: sort by IC50, max first To answer, arrange all of the labels according to the requested order.
d, e, a, c, b

###

biological target: ATP-dependent 6-phosphofructokinase (Trypanosoma brucei, UniProt O15648); assay: Inhibition of Trypanosoma brucei PFK-mediated ADP production using ATP/fructose-6-phosphate as substrate by luciferase based luminescence assay
Sequence (O15648 whole entry): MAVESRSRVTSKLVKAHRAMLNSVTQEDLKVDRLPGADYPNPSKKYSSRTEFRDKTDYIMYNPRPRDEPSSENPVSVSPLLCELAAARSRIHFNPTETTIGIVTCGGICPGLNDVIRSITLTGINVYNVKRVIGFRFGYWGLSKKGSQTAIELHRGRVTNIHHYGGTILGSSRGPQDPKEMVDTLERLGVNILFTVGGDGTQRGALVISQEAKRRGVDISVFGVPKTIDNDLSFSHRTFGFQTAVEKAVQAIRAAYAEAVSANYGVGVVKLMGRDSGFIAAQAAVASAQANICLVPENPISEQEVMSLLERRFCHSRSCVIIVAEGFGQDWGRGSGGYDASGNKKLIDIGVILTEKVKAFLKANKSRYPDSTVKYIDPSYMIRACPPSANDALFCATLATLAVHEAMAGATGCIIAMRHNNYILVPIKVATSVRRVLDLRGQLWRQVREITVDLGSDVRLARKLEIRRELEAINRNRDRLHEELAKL
pIC50: −log10 of the molar value.
observation.type: pIC50

A. O=C(Cc1ccc(Cl)c(Cl)c1)Nc1ccc(S(=O)(=O)Nc2cncnc2)cc1
B. Cc1cc(NS(=O)(=O)c2ccc(NC(=O)C(C)(C)c3ccc(Cl)c(Cl)c3)cc2)no1
C. Cc1cc(NS(=O)(=O)c2ccc(NC(=O)Cc3cccc(Cl)c3)cc2)no1
D. Cc1cc(N(C)S(=O)(=O)c2ccc(NC(=O)Cc3ccc(Cl)c(Cl)c3)cc2)no1
Quick favor: sort the compounds up above by pIC50, largest first. To answer, arrange all of the labels according to the requested order.
A, D, C, B

###

target: ATP-dependent 6-phosphofructokinase (Trypanosoma brucei); test: Inhibition of Trypanosoma brucei PFK-mediated ADP production using ATP/fructose-6-phosphate as substrate at 57 uM by luciferase based luminescence assay
observation.type: inhibition

In the examples that follow, each entry is paired with its recorded inhibition.
Cc1cc(NS(=O)(=O)c2cccc(NC(=O)Cc3ccc(Cl)c(Cl)c3)c2)no1    > 80%
Cc1cc(NS(=O)(=O)c2ccc(NC(=O)Cc3ccc(C)c(F)c3)cc2)no1    > 80%

Given Cc1cc(NS(=O)(=O)C2CCN(C(=O)Cc3ccc(Cl)c(Cl)c3)CC2)no1 , respond with its inhibition.
> 80%

Given O=C(Cc1ccc(Cl)c(Cl)c1)Nc1ccc(S(=O)(=O)Nc2ccccc2)cc1 , respond with its inhibition.
> 80%

Given O=C(Cc1ccc(Cl)c(Cl)c1)Nc1ccc(S(=O)(=O)Nc2cccc(C(=O)O)c2)cc1 , respond with its inhibition.
> 80%

Given Cc1cc(NS(=O)(=O)Cc2ccc(NC(=O)Cc3ccc(Cl)c(Cl)c3)cc2)no1 , respond with its inhibition.
> 80%

###

molecular target: ATP-dependent 6-phosphofructokinase (Trypanosoma brucei); assay: Inhibition of Trypanosoma brucei PFK-mediated ADP production using ATP/fructose-6-phosphate as substrate by luciferase based luminescence assay
pIC50: −log10 of the molar value.
observation.type: pIC50

Cc1cc(NS(=O)(=O)c2ccc(NC(=O)c3ccc(Cl)c(Cl)c3)cc2)no1    4.84
Cc1cc(NS(=O)(=O)c2cccc(NC(=O)Cc3ccc(Cl)c(Cl)c3)c2)no1    4.79
O=C(Cc1ccc(F)c(Cl)c1)Nc1ccc(S(=O)(=O)Nc2nccs2)cc1    7.62
O=C(Cc1ccc(Cl)c(Cl)c1)Nc1ccc(S(=O)(=O)Nc2nncs2)cc1    6.95
Cc1cc(NS(=O)(=O)c2ccc(NC(=O)CCc3ccc(Cl)c(Cl)c3)cc2)no1    5.29
Cc1cc(NS(=O)(=O)c2ccc(NC(=O)Cc3ccc(C)c(F)c3)cc2)no1    5.24
CN(C)c1cccc(NS(=O)(=O)c2ccc(NC(=O)Cc3ccc(Cl)c(Cl)c3)cc2)c1    5.24
Cc1cc(NS(=O)(=O)c2ccc(NC(=O)Cc3ccccc3)cc2)no1    4.44

P. Cc1cc(NS(=O)(=O)c2ccc(NC(=O)Cc3ccc(Cl)c(Cl)c3)cc2)no1
Q. Cc1cc(NS(=O)(=O)c2ccc(NC(=O)Cc3ccc(Cl)c(Cl)c3)cc2)n(C)n1
Please indicate which has the smaller reported pIC50: P , or Q . Respond using the label that marks the chosen record.
Q
(Q: 5.64, P: 6.39)
